B1: minF1; the commonest letter at each place (parent)
chain: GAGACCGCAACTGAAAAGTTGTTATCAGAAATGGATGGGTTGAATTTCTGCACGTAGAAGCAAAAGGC

Variants of: B1
Assay: fraction ligated after 30 min (ligated reads / total reads); higher = more ligase activity
Details: with F1*subA RNA substrate (template-directed ligation), 42 °C
Recorded fraction ligated for the following variants

| mutationCode | fraction ligated |
| --- | --- |
| C26A | 0.121 |
| A29T A43C | 0.065 |
| C26G A35T | 0.000597 |
| A27G A43C | 0.132 |
| T23C C26G | 0.00264 |
| A29G A35G | 0.204 |
| G34A G37T | 0.00793 |
| T23C A31T | 0.517 |
| A24C A44G | 0.00645 |
| T23G A44C | 0.693 |
| T23G A35G | 0.247 |
